test: Inhibition of Saccharomyces cerevisiae alpha-glucosidase using 4-nitrophenyl alpha-D-glucopyranoside as substrate preincubated for 120 mins
PROPERTY_LABEL: pIC50
When answering, recall that pIC50 equals minus log10 of the concentration in mol/L, and write that number alone.

1. N#Cc1c(NC(=O)CC2SC(N)=NC2=O)sc2c1CCCCCC2 (racemic) | 5.61

Alright, here's another compound for you.
Short answer for CC(C)(C)C1CCc2c(sc(NC(=O)CC3SC(N)=NC3=O)c2C#N)C1 (racemic) : pIC50 was 4.57

---

test system: Saccharomyces cerevisiae; experiment: Inhibition of Saccharomyces cerevisiae alpha-glucosidase using 4-nitrophenyl alpha-D-glucopyranoside as substrate
Active and inactive are the calls of the source. The rule behind the calls is not given here.
Outcome field: choose from label 1 (active), label 0 (inactive)

Example cases with answers are listed next.
1. N#Cc1c(NC(=O)CC2SC(N)=NC2=O)sc2c1CCCCCC2 (single isomer, unassigned; enantiomer 1) | label 0
2. CC(C)(C)C1CCc2c(sc(NC(=O)CC3SC(N)=NC3=O)c2C#N)C1 (single isomer, unassigned; enantiomer 1) | label 0
3. CC(C)(C)C1CCc2c(sc(NC(=O)CC3SC(N)=NC3=O)c2C#N)C1 (racemic) | label 1
4. CC(C)(C)C1CCc2c(sc(NC(=O)CC3SC(N)=NC3=O)c2C#N)C1 (single isomer, unassigned; enantiomer 2) | label 0
5. N#Cc1c(NC(=O)CC2SC(N)=NC2=O)sc2c1CCCCCC2 (racemic) | label 1

Q: Hi, do you know how N#Cc1c(NC(=O)CC2SC(N)=NC2=O)sc2c1CCCCCC2 (single isomer, unassigned; enantiomer 2) came out in this test?
Result: label 0

Every entry's value here was drawn from ChEMBL document CHEMBL1932982.
